Listed below: Whole Cell Binding, Ave % values for each entry.
- targetUnderTest: T1, endogenous human tissue factor on MDA-MB-231 breast cancer cells (human, UniProt P13726 33-295)
- T1 construct: also called native TF; TF
- experimentalProtocol: FACS on MDA-MB-231 cells
Numeric only. Scale: %

Completed entries (count: 4):
binder: M12 (antibody, V domains shown, complete MAb; FR4 is its own entry; also called H15/L5) VH: EVQLVQSGAEVKKPGESLRISCKGSGYTFITYWIEWVRQMPGKGLEWMGDILPGSGSTNYNENFKGHVTISADKSISTAYLQWSSLKASDTAMYYCARSGYYGNSGFAYWGQGTLVTVSS VL: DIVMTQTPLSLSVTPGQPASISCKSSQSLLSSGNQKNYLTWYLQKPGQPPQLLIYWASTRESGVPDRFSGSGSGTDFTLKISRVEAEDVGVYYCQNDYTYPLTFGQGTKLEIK
resultUnits: %
Whole Cell Binding, Ave %: 124
//
binder: M58 (antibody, V domains shown, complete MAb; FR4 is its own entry; also called H22/L2) VH: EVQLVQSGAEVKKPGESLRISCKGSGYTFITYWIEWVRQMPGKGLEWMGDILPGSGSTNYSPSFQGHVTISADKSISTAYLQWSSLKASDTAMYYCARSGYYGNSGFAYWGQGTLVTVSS VL: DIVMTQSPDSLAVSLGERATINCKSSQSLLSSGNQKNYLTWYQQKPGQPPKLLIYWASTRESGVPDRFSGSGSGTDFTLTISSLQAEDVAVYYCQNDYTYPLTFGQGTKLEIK
resultUnits: %
Whole Cell Binding, Ave %: 94
//
binder: M61 (antibody, V domains shown, complete MAb; FR4 is its own entry; also called H22/L5) VH: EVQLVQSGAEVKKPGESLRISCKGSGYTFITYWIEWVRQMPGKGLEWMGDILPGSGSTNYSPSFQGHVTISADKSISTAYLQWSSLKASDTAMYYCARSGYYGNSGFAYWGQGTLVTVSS VL: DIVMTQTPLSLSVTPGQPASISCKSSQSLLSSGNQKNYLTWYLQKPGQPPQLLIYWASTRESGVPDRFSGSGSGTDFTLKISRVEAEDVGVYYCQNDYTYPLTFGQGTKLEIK
resultUnits: %
Whole Cell Binding, Ave %: 111
//
binder: M16 (antibody, V domains shown, complete MAb; FR4 is its own entry; also called H16/L2) VH: QVQLVQSGAEVKKPGASVKVSCKASGYTFITYWIEWVRQAPGQGLEWMGDILPGSGSTNYNENFKGRVTMTRDTSTSTVYMELSSLRSEDTAVYYCARSGYYGNSGFAYWGQGTLVTVSS VL: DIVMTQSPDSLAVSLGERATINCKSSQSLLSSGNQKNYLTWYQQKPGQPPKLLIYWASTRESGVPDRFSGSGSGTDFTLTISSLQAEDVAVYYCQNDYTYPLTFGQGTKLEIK
resultUnits: %
Whole Cell Binding, Ave %: 109

The record that follows has no Whole Cell Binding, Ave % shown yet.
Per the record, M19 (antibody, V domains shown, complete MAb; FR4 is its own entry; also called H16/L5) VH: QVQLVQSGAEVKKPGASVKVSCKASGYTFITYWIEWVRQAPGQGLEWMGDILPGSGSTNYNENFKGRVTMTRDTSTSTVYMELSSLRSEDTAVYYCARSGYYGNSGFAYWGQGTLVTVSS VL: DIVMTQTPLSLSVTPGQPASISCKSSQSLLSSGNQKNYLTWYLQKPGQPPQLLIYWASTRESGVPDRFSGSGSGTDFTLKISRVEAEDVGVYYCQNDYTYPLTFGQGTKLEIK has Whole Cell Binding, Ave % of 111
